From: patent US20240247080A1

Each entry below carries its reported EC50, CreLuc assay, 0.5% hP.
- study target: T1, human GIP receptor (human, UniProt P48546 22-466)
- T1 sequence (looked up): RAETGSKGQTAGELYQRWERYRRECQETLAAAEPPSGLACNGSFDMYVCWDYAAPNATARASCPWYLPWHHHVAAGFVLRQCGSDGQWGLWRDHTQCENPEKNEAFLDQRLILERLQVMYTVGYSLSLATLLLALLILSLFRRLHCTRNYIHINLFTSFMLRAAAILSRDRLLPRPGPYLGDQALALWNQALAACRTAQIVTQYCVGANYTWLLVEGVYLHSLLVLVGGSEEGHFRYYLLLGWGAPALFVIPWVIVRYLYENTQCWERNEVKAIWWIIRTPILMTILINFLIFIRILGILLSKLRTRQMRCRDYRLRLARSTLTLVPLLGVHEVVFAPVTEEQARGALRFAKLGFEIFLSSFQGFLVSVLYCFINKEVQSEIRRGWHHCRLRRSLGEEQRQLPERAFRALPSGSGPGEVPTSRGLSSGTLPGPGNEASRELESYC
- method notes: cell-based or functional assay
Starred links: 1 amine or outer side, 2 acyl side, 3 side chain; linkers in the order of their positions; H or OH if unused. Non-standard residues stand in square brackets, D forms with d. Groups on a side chain read outwards from the residue. No end group written: not given here. *: point of attachment. C18 diacid = O=C(O)CCCCCCCCCCCCCCCCC(=O)*; γGlu = O=C(O)[C@H](CCC(=O)[*:2])N[*:1]; AEEA = NCCOCCOCC(=O)O; Aib = CC(C)(N)C(=O)O
measured attribute: EC50, CreLuc assay, 0.5% hP (nM)

binder="YXEGTFTSDYSIXLEEQAQXAFVEWLIKGGPSSGQSLRHYYNWLTRQRY (Aib at 2, 13, 20; K28 side chain: C20DA-gGlu-gGlu-gGlu-gGlu-gGlu-gGlu-eLys; C-terminal NH2) [Compound 31]" measured_attribute="EC50, CreLuc assay, 0.5% hP" endpoint_value=0.15
binder="YXEGTFTSDYSIXLEKQAQXAFVEWLIKGGPSSGVSIRHYYNWLTRQRY (Aib at 2, 13, 20; K28 side chain: C20DA-gGlu-gGlu-gGlu-gGlu-gGlu-gGlu-eLys; C-terminal NH2) [Compound 27]" measured_attribute="EC50, CreLuc assay, 0.5% hP" endpoint_value=0.17
binder="YXEGTFTSDYSIXLEKQAQXAFVQWLIKGGPESGASLRHYYNWLTRQRY (Aib at 2, 13, 20; K28 side chain: C18DA-gGlu-gGlu-gGlu-gGlu-gGlu; C-terminal NH2) [Compound 53]" measured_attribute="EC50, CreLuc assay, 0.5% hP" endpoint_value=0.13
binder="YXEGTFTSDYSIXLEKQAQXAFVQWLIKGGPSSGESLRHYYNWLTRQRY (Aib at 2, 13, 20; K28 side chain: C20DA-gGlu-gGlu-gGlu-gGlu-gGlu-gGlu-eK; C-terminal NH2) [Compound 35]" measured_attribute="EC50, CreLuc assay, 0.5% hP" endpoint_value=0.06
binder="YXEGTFTSDYSIXLEKQAQXAFVEWLIKGGPSSYESLRHYYNWLTRQRY (Aib at 2, 13, 20; K28 side chain: C20DA-gGlu-gGlu-gGlu-gGlu-gGlu-gGlu-eLys; C-terminal NH2) [Compound 50]" measured_attribute="EC50, CreLuc assay, 0.5% hP" endpoint_value=0.12
binder="Y[Aib]EGTFTSDYSI[Aib]LEKQAQ[Aib]AFVQWLIK([AEEA-AEEA-γGlu-γGlu-γGlu-γGlu-C18 diacid])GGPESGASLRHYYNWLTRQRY-NH2 (also: TFA salt) [Compound 58]" measured_attribute="EC50, CreLuc assay, 0.5% hP" endpoint_value=0.24
